assay: single oral dose pharmacokinetics in Sprague Dawley rats; format: in vivo; conditions: Sprague Dawley, plasma; rat, female, single oral 30 mg/kg
Assay endpoint: Cmax (ng/mL)

1) CCOCc1cnc(Cl)nc1Oc1ccc2c(ccc3sc4c(c32)NC[C@@H](C)NC4=O)n1	4960

----------
test: single oral dose pharmacokinetics in Sprague Dawley rats; assay type: in vivo; details: Sprague Dawley, plasma; rat, female, single oral 30 mg/kg, median; read-out: tmax
Assay endpoint: Tmax (min)

1) CCOCc1cnc(Cl)nc1Oc1ccc2c(ccc3sc4c(c32)NC[C@@H](C)NC4=O)n1 [Compound 1]	30

----------
assay: single oral dose pharmacokinetics in CD-1 mice; type: in vivo, mouse; settings: CD-1, plasma; mouse, female, single oral 15 mg/kg
Assay endpoint: AUC(0-inf)

1. CCOCc1cnc(Cl)nc1Oc1ccc2c(ccc3sc4c(c32)NC[C@@H](C)NC4=O)n1 [Compound 1]	5250 ng·h/mL
